These entries and their values trace back to ChEMBL document CHEMBL1157539.

Tested on: Plasmodium falciparum
ASSAY_METHOD_TEXT: GSK_TCMDC: Inhibition of Plasmodium falciparum Dd2 in whole red blood cells, using parasite LDH activity as an index of growth. Test compounds present at 2uM
Format: functional
# strict inequality: Inhibition < 70% yields yes, everything else yields no

input: For CN(C)C(=O)c1cc(CNCc2ccccc2)ccc1-c1cccc(CNCc2ccc(-c3ccccc3)cc2)c1.O=C(O)C(F)(F)F , is the recorded Inhibition below the cut-off of 70%?
output: yes

input: For COc1ccc(CCn2c(=N)c(C(=O)NCc3ccccc3)cc3c(=O)n4ccccc4nc32)cc1 , is the recorded Inhibition below the cut-off of 70%?
output: yes

input: For Cl.Nc1c2c(nc3ccc(NC(=O)CCCCCCc4ccccc4)cc13)CCCC2 , is the recorded Inhibition below the cut-off of 70%?
output: no

input: For CSc1nc2cc3c(cc2n1C(=O)c1ccc(C)cc1)OCCO3 , is the recorded Inhibition below the cut-off of 70%?
output: yes

input: For COc1ccc(NC(=O)N2CCN(CCCCCNC(=O)/C=C/c3ccc(C(F)(F)F)cc3)CC2)cc1Cl , is the recorded Inhibition below the cut-off of 70%?
output: yes

input: For CCOc1c(Br)cc(Br)cc1CNCCCCNc1nc2ccccc2[nH]1 , is the recorded Inhibition below the cut-off of 70%?
output: yes

input: For CN(C)CCCNC(=O)c1ccccc1Sc1ccccc1C#N.Cl , is the recorded Inhibition below the cut-off of 70%?
output: yes

input: For Cn1nc(-c2ccc(NC(=O)Nc3cc(C(F)(F)F)ccc3F)cc2)c2cnc(NCCc3c[nH]cn3)nc21.O=C(O)C(F)(F)F , is the recorded Inhibition below the cut-off of 70%?
output: yes

input: For Cc1onc(-c2ccc(Cl)cc2)c1-c1ccnn1S(=O)(=O)c1ccc(Cl)cc1 , is the recorded Inhibition below the cut-off of 70%?
output: no

input: For Cc1cc(F)ccc1Oc1nc(Nc2ccc(N3CCOCC3)c(F)c2)nc2c1S(=O)(=O)CCC2.Cl , is the recorded Inhibition below the cut-off of 70%?
output: no

input: For O=C(NC1CCCCC1)N(Cc1ccc(-c2ccc(CNC3CCCC3)cc2)cc1)C1CCN(Cc2ccccc2)CC1.O=C(O)C(F)(F)F , is the recorded Inhibition below the cut-off of 70%?
output: no

input: For COc1ccc(-c2csc3ncnc(Cl)c23)cc1OC , is the recorded Inhibition below the cut-off of 70%?
output: no

input: For COc1ccc(-c2ccc(CNC(=O)c3cccc(C#N)c3)c(F)c2)cc1CN1CCCN(C)CC1.O=C(O)C(F)(F)F , is the recorded Inhibition below the cut-off of 70%?
output: yes

input: For Cc1noc(-c2ccccc2)c1NC(=O)N1CCN(CCCCCCNC(=O)/C=C/c2ccc(Cl)c(Cl)c2)CC1 , is the recorded Inhibition below the cut-off of 70%?
output: yes

input: For Cc1cc(N[C@@H](CC(C)C)C(=O)NCCOc2ccccc2)nc(NCCc2ccccc2)n1.O=C(O)C(F)(F)F , is the recorded Inhibition below the cut-off of 70%?
output: yes

input: For O=C(Nc1ccc(Cl)cc1)Nc1ccc(-c2cccc(-c3nc4cc(F)ccc4[nH]3)c2)cc1 , is the recorded Inhibition below the cut-off of 70%?
output: no

input: For COc1ccc(NC(=O)[C@H](CC(C)C)Nc2cc(C)nc(NCc3cccc(C)c3)n2)cc1.O=C(O)C(F)(F)F , is the recorded Inhibition below the cut-off of 70%?
output: no

input: For CCCNC(=O)Nc1cc2cc(-c3ccc(CN4CCCC4)cc3)ccc2n2c(C)nnc12 , is the recorded Inhibition below the cut-off of 70%?
output: yes

input: For COc1ccc2nccc([C@@H](O)CN3CCC(NC(=O)/C=C/c4cccc(NC(C)=O)c4)CC3)c2c1 , is the recorded Inhibition below the cut-off of 70%?
output: yes

input: For Cn1ncc2ccc(Nc3nccc(-c4ccc5c(c4)c(N)nn5C)n3)cc21 , is the recorded Inhibition below the cut-off of 70%?
output: no

input: For COc1ccc(-c2ccc3c(-c4ccc(F)cc4)cnc(N)c3c2)cn1 , is the recorded Inhibition below the cut-off of 70%?
output: no

input: For CCCNC(=O)c1cncc(-c2cccc(CNC3Cc4ccccc4C3)c2)c1.O=C(O)C(F)(F)F , is the recorded Inhibition below the cut-off of 70%?
output: yes

input: For COc1ccc(-c2ccc(NC(=O)c3ccc(C#N)cc3)cc2)cc1CN1CCC(O)CC1.O=C(O)C(F)(F)F , is the recorded Inhibition below the cut-off of 70%?
output: yes

input: For CCn1c(-c2cc(C)on2)nc2cnc(Oc3ccc(C(=O)N4CC(=O)N(C)C4C(C)(C)C)cc3)cc21 (stereo unspecified) , is the recorded Inhibition below the cut-off of 70%?
output: yes

input: For CCOC(=O)NCC(=O)Nc1cccc(-c2cccc(-c3nc4cccc(C)c4[nH]3)c2)c1 , is the recorded Inhibition below the cut-off of 70%?
output: yes

input: For CS(=O)(=O)c1ccc(CNCc2ccc(-c3cccc(-c4nc5cc(F)ccc5[nH]4)c3)cc2)cc1.O=C(O)C(F)(F)F , is the recorded Inhibition below the cut-off of 70%?
output: no

input: For COc1cccc(NC(=O)Nc2ccc(Nc3nc(C)cc(N(C)C)n3)cc2)c1 , is the recorded Inhibition below the cut-off of 70%?
output: no

input: For COc1ccc(C2CCN(CCN3CCC(NC(=O)c4cccc(-c5ccncc5)c4)CC3)CC2)c(OC)c1 , is the recorded Inhibition below the cut-off of 70%?
output: yes

input: For O=C(Nc1cccc(C(F)(F)F)c1)c1ccc(S(=O)(=O)NC2CCN(CC3CCCCC3)C2)cc1.O=C(O)C(F)(F)F (stereo unspecified) , is the recorded Inhibition below the cut-off of 70%?
output: yes

input: For O=C(NCC1CC1)C1CCN(C(c2ccccc2)c2cc(F)cc(F)c2)CC1 (stereo unspecified) , is the recorded Inhibition below the cut-off of 70%?
output: no

input: For Cc1nc(-c2ccc(-c3ccc(C(=O)Nc4ccc(I)c(OCC5CCCN5C)c4)cc3)c(C)c2)no1.Cl (stereo unspecified) , is the recorded Inhibition below the cut-off of 70%?
output: yes

input: For COc1ccc2nccc([C@@H](O)CN3CCC(NCc4nc5ccc(F)cc5[nH]4)CC3)c2c1.O=C(O)C(=O)O , is the recorded Inhibition below the cut-off of 70%?
output: yes
